Listed here: items and their measured pEC50.
measurement.notes: Effective concentration of compound for half-maximal response in hydroosmotic toad bladder assay
Type: functional
assay.context: Amphibia; read-out: ED50 (the source's name)
Where a SMILES comes first, the peptide text is derived from it. Bridges are numbered along the chain shown (N, C = ends). [ ]: non-standard residue; d: D form. The star is where a group is joined. Biotin = O=C1N[C@H]2[C@H](CS[C@H]2CCCCC(=O)*)N1; Phe(4-NH2) = Nc1ccc(C[C@H](N)C(=O)O)cc1; Mpa = O=C(O)CCS
Note on units: pEC50 is unitless, being -log10 of a concentration expressed in mol/L.

CC[C@H](C)[C@@H]1NC(=O)[C@H](Cc2ccc(O)cc2)NC(=O)CCSSC[C@@H](C(=O)N2CCC[C@H]2C(=O)N[C@@H](CCCN=C(N)N)C(=O)N[C@@H](Cc2ccc(N)cc2)C(N)=O)NC(=O)[C@H](CC(N)=O)NC(=O)[C@H](CCC(N)=O)NC1=O (HELM PEPTIDE1{[O=C(CCS[*:3])[*:2]].Y.I.Q.N.C.P.R.[Nc1ccc(C[C@H](N[*:1])C(=O)[*:2])cc1].[am]}$PEPTIDE1,PEPTIDE1,1:R3-6:R3$$$V2.0) :: 9.89
CC[C@H](C)[C@@H]1NC(=O)[C@H](Cc2ccc(O)cc2)NC(=O)CCSSC[C@@H](C(=O)N2CCC[C@H]2C(=O)N[C@@H](CCCN=C(N)N)C(=O)N[C@@H](Cc2ccc(NC(=O)CCCC[C@@H]3SC[C@@H]4NC(=O)N[C@@H]43)cc2)C(N)=O)NC(=O)[C@H](CC(N)=O)NC(=O)[C@H](CCC(N)=O)NC1=O ([Mpa]YIQNCPR[Phe(4-NH2)](Biotin)-NH2; disulfide 1-6) :: 7.92
CC[C@H](C)[C@@H]1NC(=O)[C@H](Cc2ccccc2)NC(=O)[C@@H](N)CSSC[C@@H](C(=O)N2CCC[C@H]2C(=O)N[C@@H](CCCN=C(N)N)C(=O)N[C@@H](Cc2ccc(O)c(I)c2)C(N)=O)NC(=O)[C@H](CC(N)=O)NC(=O)[C@H](CCC(N)=O)NC1=O (HELM PEPTIDE1{C.F.I.Q.N.C.P.R.[O=C([C@H](Cc1ccc(O)c(I)c1)N[*:1])[*:2]].[am]}$PEPTIDE1,PEPTIDE1,1:R3-6:R3$$$V2.0) :: 8.60

Note to self: pEC50 recorded for CC[C@H](C)[C@@H]1NC(=O)[C@H](Cc2ccccc2)NC(=O)[C@@H](N)CSSC[C@@H](C(=O)N2CCC[C@H]2C(=O)N[C@@H](CCCN=C(N)N)C(=O)N[C@@H](Cc2ccc(O)cc2)C(N)=O)NC(=O)[C@H](CC(N)=O)NC(=O)[C@H](CCC(N)=O)NC1=O (HELM PEPTIDE1{C.F.I.Q.N.C.P.R.Y.[am]}$PEPTIDE1,PEPTIDE1,1:R3-6:R3$$$V2.0) was 8.68
